Entries and their IC50
- target: Human Cav 2.2 channels (Homo sapiens)
- Sequence (Q00975 whole entry): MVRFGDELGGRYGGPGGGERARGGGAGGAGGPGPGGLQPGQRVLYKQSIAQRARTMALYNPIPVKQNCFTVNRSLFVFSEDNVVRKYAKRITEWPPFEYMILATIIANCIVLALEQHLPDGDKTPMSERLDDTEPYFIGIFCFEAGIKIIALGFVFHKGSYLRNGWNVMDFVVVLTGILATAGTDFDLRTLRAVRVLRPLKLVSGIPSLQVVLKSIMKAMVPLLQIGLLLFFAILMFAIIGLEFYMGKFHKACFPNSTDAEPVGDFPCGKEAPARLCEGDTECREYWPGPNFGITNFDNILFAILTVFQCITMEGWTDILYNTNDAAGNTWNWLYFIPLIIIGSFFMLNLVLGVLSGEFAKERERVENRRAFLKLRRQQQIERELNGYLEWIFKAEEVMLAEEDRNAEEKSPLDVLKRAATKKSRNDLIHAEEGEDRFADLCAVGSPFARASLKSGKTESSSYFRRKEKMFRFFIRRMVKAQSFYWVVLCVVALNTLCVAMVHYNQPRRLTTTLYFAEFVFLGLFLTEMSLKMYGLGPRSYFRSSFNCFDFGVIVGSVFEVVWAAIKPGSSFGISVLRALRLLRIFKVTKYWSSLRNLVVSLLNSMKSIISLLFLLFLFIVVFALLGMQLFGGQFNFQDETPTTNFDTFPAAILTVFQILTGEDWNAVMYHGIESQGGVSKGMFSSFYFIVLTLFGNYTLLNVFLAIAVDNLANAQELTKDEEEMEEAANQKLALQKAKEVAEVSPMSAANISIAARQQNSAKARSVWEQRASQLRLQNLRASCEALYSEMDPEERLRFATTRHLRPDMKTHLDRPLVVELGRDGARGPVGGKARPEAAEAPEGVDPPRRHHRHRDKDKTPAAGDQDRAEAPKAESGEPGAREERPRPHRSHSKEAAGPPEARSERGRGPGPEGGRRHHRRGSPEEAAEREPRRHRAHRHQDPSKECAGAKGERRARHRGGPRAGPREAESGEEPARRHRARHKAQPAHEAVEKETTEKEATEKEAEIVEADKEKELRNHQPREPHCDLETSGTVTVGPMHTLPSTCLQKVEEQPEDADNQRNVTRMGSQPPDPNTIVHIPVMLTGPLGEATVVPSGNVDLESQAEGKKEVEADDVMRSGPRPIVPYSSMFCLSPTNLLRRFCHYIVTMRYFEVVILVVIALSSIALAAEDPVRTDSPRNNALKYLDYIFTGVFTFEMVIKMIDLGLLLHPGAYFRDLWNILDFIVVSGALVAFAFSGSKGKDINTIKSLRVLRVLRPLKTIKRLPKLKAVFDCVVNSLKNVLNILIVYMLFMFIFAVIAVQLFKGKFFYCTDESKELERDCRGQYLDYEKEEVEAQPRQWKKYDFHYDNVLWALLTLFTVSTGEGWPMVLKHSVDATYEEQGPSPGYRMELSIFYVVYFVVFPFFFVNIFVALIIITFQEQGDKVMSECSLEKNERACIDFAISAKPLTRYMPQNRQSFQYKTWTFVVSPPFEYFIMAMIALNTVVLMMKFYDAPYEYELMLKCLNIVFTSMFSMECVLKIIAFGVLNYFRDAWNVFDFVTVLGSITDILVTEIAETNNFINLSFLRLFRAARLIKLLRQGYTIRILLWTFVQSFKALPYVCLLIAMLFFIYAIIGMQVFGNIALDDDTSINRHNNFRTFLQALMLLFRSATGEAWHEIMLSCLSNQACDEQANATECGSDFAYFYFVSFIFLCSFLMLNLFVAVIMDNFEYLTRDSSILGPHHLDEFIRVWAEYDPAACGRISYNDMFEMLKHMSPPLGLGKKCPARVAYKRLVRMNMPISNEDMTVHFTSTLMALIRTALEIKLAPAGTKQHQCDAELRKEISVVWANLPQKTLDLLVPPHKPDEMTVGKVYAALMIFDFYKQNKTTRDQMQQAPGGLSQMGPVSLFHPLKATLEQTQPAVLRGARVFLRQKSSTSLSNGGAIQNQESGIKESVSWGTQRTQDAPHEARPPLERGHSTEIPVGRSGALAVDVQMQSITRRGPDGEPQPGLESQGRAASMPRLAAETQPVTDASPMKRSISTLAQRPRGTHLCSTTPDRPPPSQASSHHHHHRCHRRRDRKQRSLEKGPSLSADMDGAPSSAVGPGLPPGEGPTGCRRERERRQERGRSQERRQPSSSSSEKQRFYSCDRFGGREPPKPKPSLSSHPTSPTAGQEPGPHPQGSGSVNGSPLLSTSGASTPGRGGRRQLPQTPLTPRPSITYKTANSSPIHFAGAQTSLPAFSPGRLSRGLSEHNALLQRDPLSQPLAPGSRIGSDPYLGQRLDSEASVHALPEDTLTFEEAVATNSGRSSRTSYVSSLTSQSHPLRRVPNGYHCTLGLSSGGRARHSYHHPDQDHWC
- Sequence (P54289 25-1103 partner): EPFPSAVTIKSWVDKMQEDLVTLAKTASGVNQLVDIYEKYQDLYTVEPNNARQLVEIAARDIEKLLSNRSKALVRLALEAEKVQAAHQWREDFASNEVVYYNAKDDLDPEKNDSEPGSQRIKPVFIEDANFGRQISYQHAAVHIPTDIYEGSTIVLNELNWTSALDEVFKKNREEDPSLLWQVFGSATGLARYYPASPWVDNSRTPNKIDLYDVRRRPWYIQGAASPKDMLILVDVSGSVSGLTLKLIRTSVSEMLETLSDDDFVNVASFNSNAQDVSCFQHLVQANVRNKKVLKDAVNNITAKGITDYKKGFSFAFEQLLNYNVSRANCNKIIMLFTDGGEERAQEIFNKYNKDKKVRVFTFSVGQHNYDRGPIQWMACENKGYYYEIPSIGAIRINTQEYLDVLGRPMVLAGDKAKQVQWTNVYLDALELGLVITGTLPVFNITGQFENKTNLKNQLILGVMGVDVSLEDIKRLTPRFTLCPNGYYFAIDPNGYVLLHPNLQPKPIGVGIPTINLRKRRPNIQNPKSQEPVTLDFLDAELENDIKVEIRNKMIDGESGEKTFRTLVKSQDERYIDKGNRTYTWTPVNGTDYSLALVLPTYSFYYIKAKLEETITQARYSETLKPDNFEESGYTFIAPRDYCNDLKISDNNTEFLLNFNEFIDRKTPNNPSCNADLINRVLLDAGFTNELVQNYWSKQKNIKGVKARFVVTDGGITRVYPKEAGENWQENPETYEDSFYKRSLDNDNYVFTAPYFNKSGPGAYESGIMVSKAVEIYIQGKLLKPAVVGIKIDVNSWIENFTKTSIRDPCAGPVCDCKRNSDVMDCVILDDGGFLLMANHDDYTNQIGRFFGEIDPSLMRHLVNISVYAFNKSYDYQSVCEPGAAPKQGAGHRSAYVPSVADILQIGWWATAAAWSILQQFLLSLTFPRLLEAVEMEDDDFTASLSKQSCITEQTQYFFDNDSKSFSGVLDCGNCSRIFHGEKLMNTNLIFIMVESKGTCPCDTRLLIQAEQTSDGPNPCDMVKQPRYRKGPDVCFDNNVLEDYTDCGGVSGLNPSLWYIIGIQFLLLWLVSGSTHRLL
- Sequence (P54284 whole entry partner): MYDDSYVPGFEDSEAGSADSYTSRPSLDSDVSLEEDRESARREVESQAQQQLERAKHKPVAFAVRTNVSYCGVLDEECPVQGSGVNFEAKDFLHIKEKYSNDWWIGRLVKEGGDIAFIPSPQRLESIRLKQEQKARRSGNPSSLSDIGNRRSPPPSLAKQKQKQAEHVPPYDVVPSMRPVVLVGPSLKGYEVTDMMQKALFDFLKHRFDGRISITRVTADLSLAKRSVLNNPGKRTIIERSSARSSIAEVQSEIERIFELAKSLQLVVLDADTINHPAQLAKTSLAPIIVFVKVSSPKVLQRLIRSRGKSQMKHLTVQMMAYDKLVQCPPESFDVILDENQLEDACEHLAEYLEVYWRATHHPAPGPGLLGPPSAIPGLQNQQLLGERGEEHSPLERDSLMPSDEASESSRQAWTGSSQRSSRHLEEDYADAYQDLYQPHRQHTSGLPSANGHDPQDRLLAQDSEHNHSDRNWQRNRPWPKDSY
- assay-notes: Fluorescent assay for CaV2.2 channels using potassium depolarization (VIPR/FLIPR)
- Format: cell-based
- condition-context: FLIPR data; closed state; read-out: CAv2.2 IC50 Closed
readout-kind: IC50

[[record]]
compound = "O=C(NC[C@H]1C[C@H](S(=O)(=O)c2cccc(OC(F)(F)F)c2)C1)c1ccc(C(F)(F)F)nc1 [Compound 695]"
reported_value = "5.12 µM"

[[record]]
compound = "Cc1nc(S(=O)(=O)N[C@H]2C[C@H](C(C)(C)S(=O)(=O)c3cccc(C(F)(F)F)c3)C2)cn1C [Compound 670]"
reported_value = "10 µM"

[[record]]
compound = "CC(C)([C@H]1C[C@@H](NS(=O)(=O)c2ccc(F)c(C(F)(F)F)c2)C1)S(=O)(=O)c1cccc(C(F)(F)F)c1 [Compound 628]"
reported_value = "10 µM"

[[record]]
compound = "O=C(NC[C@H]1C[C@H](S(=O)(=O)c2cccc(OC(F)(F)F)c2)C1)c1ccc(OCC(F)(F)F)nc1 [Compound 699]"
reported_value = "7.86 µM"

[[record]]
compound = "CC(C)(C[C@H]1C[C@@H](NC(=O)c2ccc(C(F)(F)F)cc2)C1)S(=O)(=O)c1cccc(C(F)(F)F)c1 [Compound 732]"
reported_value = "0.92 µM"

[[record]]
compound = "O=S(=O)(c1cc(F)cc(C(F)(F)F)c1)[C@H]1C[C@@H](CNc2ccnc(C(F)(F)F)n2)C1 [Compound 651]"
reported_value = "10 µM"

[[record]]
compound = "CC(C)([C@H]1C[C@@H](CNC(=O)c2ccc(Cl)c(OC(F)(F)F)c2)C1)S(=O)(=O)c1cccc(C(F)(F)F)c1 [Compound 688]"
reported_value = "3.4 µM"

[[record]]
compound = "CC(C)S(=O)(=O)c1cc(C(F)(F)F)cnc1C(=O)N[C@H]1C[C@@H](C(C)(C)S(=O)(=O)c2cccc(OC(F)(F)F)c2)C1 [Compound 645]"
reported_value = "8.49 µM"

[[record]]
compound = "CC(C)([C@H]1C[C@H](C(=O)NCc2ccc(Oc3ccccc3)cc2)C1)S(=O)(=O)c1cccc(C(F)(F)F)c1 [Compound 764]"
reported_value = "1.02 µM"

[[record]]
compound = "CC(C)([C@H]1C[C@H](NC(=O)c2ccc(C(F)(F)F)cc2S(C)(=O)=O)C1)S(=O)(=O)c1cccc(OC(F)(F)F)c1 [Compound 636]"
reported_value = "10 µM"

[[record]]
compound = "CC(C)([C@H]1C[C@@H](NC(=O)c2ccnc(C(F)(F)F)n2)C1)S(=O)(=O)c1cccc(OC(F)(F)F)c1 [Compound 642]"
reported_value = "3.09 µM"

[[record]]
compound = "CC(C)([C@H]1C[C@H](NS(=O)(=O)c2ccc(OC(F)(F)F)cc2)C1)S(=O)(=O)c1cc(F)cc(C(F)(F)F)c1 [Compound 610]"
reported_value = "3.58 µM"

[[record]]
compound = "CC(C)([C@H]1C[C@H](NC(=O)c2ccnc(C(F)(F)F)n2)C1)S(=O)(=O)c1cccc(OC(F)(F)F)c1 [Compound 635]"
reported_value = "2 µM"

